Biological target: Fyn (UniProt P06241)
Sequence (P06241 whole entry, looked up): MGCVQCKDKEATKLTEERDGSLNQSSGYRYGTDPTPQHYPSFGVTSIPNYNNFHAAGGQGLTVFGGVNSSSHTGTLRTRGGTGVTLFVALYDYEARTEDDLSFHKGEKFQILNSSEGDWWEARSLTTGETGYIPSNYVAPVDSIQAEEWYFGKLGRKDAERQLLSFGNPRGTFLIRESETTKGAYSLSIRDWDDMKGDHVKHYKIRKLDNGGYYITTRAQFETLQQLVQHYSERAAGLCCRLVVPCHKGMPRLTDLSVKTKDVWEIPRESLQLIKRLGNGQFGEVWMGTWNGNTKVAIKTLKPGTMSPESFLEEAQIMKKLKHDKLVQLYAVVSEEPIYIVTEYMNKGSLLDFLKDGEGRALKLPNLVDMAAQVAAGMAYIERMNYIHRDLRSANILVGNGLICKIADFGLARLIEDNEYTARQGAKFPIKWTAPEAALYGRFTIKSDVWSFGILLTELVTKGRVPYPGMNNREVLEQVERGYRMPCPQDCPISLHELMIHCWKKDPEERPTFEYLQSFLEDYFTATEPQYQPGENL
Assay: phosphorylation enrichment, bacterial display (enrichment ratio); higher = better substrate or ligand; peptides without Tyr show the background;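 also: 11-residue human phosphosite peptides and single-mutation variants displayed on the E. coli surface, counted by deep sequencing, each peptide's frequency after selection divided by its frequency in the unselected input library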;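 also: frequency after pTyr selection over input frequency; kinase dosed for 20-30% of maximal phosphorylation in three min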
Classify as follows. Reported phosphorylation enrichment greater than or equal to 0.6: label 1. Reported phosphorylation enrichment below: label 0.

# Macromolecule sequence, Group label
measured = [
    ("DPLASYLDKVR [KRT10_Y160_R156P]", "label 0"),
    ("WTAHSYRMGSA [ARHGEF7_Y785_T790A]", "label 0"),
    ("IPGGIYNADLN [CST4_Y35_D36N]", "label 1"),
    ("RSAGKYDVYFI [MECP2_Y120_L124F]", "label 1"),
    ("NRNVRYLTLDI [AKR1C2_Y305]", "label 0"),
    ("TAALWYIFLHT [ENG_Y612_S615L_YF]", "label 0"),
    ("PATFTYDEFKK [COL8A2_Y648_YF]", "label 1"),
    ("IRTGIYHGGEP [PIK3CA_Y361_V356I]", "label 0"),
    ("TYGQVYKGRHV [TNIK_Y40]", "label 1"),
    ("GVASDYKCIDP [VPS13B_Y1991]", "label 0"),
    ("PVQAAYQKVVA [HBB_Y131]", "label 0"),
    ("NKKFHYRELPV [ERN2_Y860_H858Y_YF]", "label 0"),
    ("DRLASYRDKVR [KRT12_Y139_L140R]", "label 0"),
    ("ATARPYRPFII [LRP5_Y1528_YF]", "label 0"),
    ("FKDGQYWIRGQ [ACSF3_Y466_R471Q]", "label 0"),
    ("SCRENYSFSEE [LEMD3_Y258_D260Y_YF]", "label 0"),
    ("EFHRLYEEFTR [PIK3R1_Y467_D464H_YF]", "label 1"),
    ("ADFPDYKFRPR [SOX11_Y116_YF]", "label 0"),
    ("SFPSFYTSHVQ [NEFL_Y443_YF]", "label 0"),
    ("NKEAICSGFIR [SMCHD1_Y283_Y283C_YF]", "label 0"),
    ("PFSEPYADFGG [APBA1_Y187_YF]", "label 1"),
    ("LAARFYNWVSF [FLT4_Y1231_YF]", "label 0"),
    ("TKVTFYKQPMF [GBA_Y451_D448V]", "label 0"),
    ("SVTWTYSPALN [TP53_Y126_C124W]", "label 0"),
    ("IHTEFYDGLFP [BCR_Y561_K558T]", "label 1"),
    ("EELLHYAIVTP [POC5_Y37]", "label 1"),
]
